Recorded values, source patent US11052072B2.

Target: human liver-glucuronidase (hβG) (Homo sapiens, UniProt P08236)
Sequence (P08236 23-651): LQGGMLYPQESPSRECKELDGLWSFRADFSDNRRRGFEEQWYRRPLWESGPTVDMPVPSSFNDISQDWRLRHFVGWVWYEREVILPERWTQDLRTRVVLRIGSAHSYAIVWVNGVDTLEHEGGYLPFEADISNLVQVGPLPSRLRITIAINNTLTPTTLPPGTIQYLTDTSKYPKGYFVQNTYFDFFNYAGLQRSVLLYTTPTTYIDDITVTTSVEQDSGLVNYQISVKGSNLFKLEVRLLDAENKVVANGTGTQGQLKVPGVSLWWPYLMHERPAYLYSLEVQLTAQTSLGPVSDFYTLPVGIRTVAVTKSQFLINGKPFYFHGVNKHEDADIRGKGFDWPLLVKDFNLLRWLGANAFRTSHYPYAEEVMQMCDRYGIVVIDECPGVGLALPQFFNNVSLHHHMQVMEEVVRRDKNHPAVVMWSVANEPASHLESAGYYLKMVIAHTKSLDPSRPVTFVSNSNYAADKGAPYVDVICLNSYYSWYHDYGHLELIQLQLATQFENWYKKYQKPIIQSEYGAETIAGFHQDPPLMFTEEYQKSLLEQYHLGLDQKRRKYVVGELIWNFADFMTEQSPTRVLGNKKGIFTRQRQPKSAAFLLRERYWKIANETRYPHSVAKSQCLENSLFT
Test: Inhibition of purified recombinant hβG activity (pNPG substrate, OD420)
Format: biochemical
Details: 10 μM; purified recombinant hβG, pNPG; means ± S.D. of at least three separate experiments; read-out: Percent activity of human liver-glucuronidase at 10 μM (%)
Procedure: The pyrazolo[4,3-c]quinoline derivatives were examined for their inhibition against eβG or hβG activity. Purified recombinant eβG or hβG proteins were incubated with serial dilution of the inhibitors, respectively. The βG activity was determined by color development of a βG substrate, pNPG. The hydrolysis product of pNPG, PNP was measured by OD420.
Reported remaining activity at 10 µM values are given for each entry in this list.

smiles str | system tested | result units | remaining activity at 10 µM
Nc1n[nH]c2c1c(Nc1ccc(Cl)cc1)nc1ccc(Br)cc12 | human liver-glucuronidase (hβG) (Homo sapiens, UniProt P08236) | % | 79.3
CSc1ccc(Nc2nc3ccccc3c3[nH]nc(N)c23)cc1 | human liver-glucuronidase (hβG) (Homo sapiens, UniProt P08236) | % | 108
Cc1ccc(Nc2nc3ccccc3c3[nH]nc(N)c23)cc1 | human liver-glucuronidase (hβG) (Homo sapiens, UniProt P08236) | % | 110
COc1ccc(NC(=O)Nc2n[nH]c3c2c(Nc2ccc(C)cc2)nc2ccccc23)cc1 | human liver-glucuronidase (hβG) (Homo sapiens, UniProt P08236) | % | 87.5
CC(=O)c1ccc(Nc2nc3ccccc3c3[nH]nc(N)c23)cc1 | human liver-glucuronidase (hβG) (Homo sapiens, UniProt P08236) | % | 104

====

Reported melting point values are given for each entry in this list.
Structures can show the parent of a compound that is named as a salt.

molecule | melting point
Nc1n[nH]c2c1c(Nc1ccc([N+](=O)[O-])cc1)nc1ccccc12 (as salt: salt) | 303 to 305 °C
Nc1n[nH]c2c1c(Nc1ccc(Cl)cc1)nc1ccc(Br)cc12 | 264 °C (dec.)
CSc1ccc(Nc2nc3ccccc3c3[nH]nc(N)c23)cc1 (as salt: salt) | 269 to 271 °C
Nc1n[nH]c2c1c(Nc1ccccc1)nc1ccccc12 | 256 to 258 °C

====

Reported remaining activity at 10 µM values are given for each entry in this list.
Molecular target: E. coli β-glucuronidase (eβG) (Escherichia coli, UniProt P05804)
Sequence (P05804 whole entry): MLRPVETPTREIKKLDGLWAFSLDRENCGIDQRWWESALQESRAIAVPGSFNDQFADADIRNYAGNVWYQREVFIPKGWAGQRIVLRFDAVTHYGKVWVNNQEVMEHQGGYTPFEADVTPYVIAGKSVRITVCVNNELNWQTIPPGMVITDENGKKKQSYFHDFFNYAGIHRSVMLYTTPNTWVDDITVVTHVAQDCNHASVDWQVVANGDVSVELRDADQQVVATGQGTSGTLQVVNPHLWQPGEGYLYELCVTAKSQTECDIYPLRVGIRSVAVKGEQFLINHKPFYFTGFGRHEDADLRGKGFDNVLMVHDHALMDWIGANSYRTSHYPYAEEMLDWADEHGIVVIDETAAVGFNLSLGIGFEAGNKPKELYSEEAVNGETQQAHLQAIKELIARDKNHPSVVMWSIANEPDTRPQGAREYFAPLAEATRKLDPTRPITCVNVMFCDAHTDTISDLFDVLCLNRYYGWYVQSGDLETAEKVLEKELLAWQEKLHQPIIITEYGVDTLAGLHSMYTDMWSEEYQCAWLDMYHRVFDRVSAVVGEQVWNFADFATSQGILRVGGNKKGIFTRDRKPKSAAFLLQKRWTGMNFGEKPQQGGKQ
Experiment: Inhibition of purified recombinant eβG activity (pNPG substrate, OD420)
Format: biochemical
Conditions: read-out: Percent activity of E. coli-glucuronidase at 10 μM (%)

smiles str | result units | remaining activity at 10 µM
O=C(Nc1ccccc1)Nc1n[nH]c2c1c(Nc1ccc(Cl)cc1)nc1ccccc12 | % | 4
Cc1ccc(Nc2nc3cc(F)ccc3c3[nH]nc(N)c23)cc1 | % | 4
Nc1n[nH]c2c1c(Nc1ccccc1)nc1ccccc12 | % | 4
